Tested on: mu opiate receptor (MOR)
protocolSummary: MOR agonist activity using [35S]GTPγS binding assay in striatal membranes
Assay type: biochemical
reportedConditions: Series C-1; 0.1 μM compound; [35S]GTPγS binding to Gαo, striatal membranes
assayEndpoint: Concentration of FLNA-Binding Compound as Agonist 0.1 μM (%)

{"compound": "CC(=O)c1ccc(S(=O)(=O)N2CCC3(CC2)OC(CN(C)C)CN3S(=O)(=O)c2ccc(C(C)=O)cc2)cc1 (centres unmarked)", "unitsSymbol": "%", "testResult": 198.3}
{"compound": "NS(=O)(=O)c1ccc(S(=O)(=O)N2CCC3(CC2)OCCN3S(=O)(=O)c2ccc(S(N)(=O)=O)cc2)cc1", "unitsSymbol": "%", "testResult": 103.6}
{"compound": "N#Cc1ccc(S(=O)(=O)N2CCC3(CC2)OCCN3S(=O)(=O)c2ccc(C#N)cc2)cc1", "unitsSymbol": "%", "testResult": 71.2}
{"compound": "CC(=O)Nc1ccc(S(=O)(=O)N2CCC3(CC2)OCCN3S(=O)(=O)c2ccc(NC(C)=O)cc2)cc1", "unitsSymbol": "%", "testResult": 156.6}
{"compound": "CC(O)c1ccc(S(=O)(=O)N2CCC3(CC2)OCCN3S(=O)(=O)c2ccc(C(C)O)cc2)cc1 (centres unmarked)", "unitsSymbol": "%", "testResult": 94.4}
{"compound": "O=S(=O)(c1ccc(Br)c(C(F)(F)F)c1)N1CCC2(CC1)OCCN2S(=O)(=O)c1ccc(Br)c(C(F)(F)F)c1", "unitsSymbol": "%", "testResult": 192.7}
{"compound": "COc1cc(S(=O)(=O)N2CCC3(CC2)OCCN3S(=O)(=O)c2cc(OC)c(OC)c(OC)c2)cc(OC)c1OC", "unitsSymbol": "%", "testResult": 127.8}
{"compound": "O=S(=O)(c1ccc(Br)cc1C(F)(F)F)N1CCC2(CC1)OCCN2S(=O)(=O)c1ccc(Br)cc1C(F)(F)F", "unitsSymbol": "%", "testResult": 107.2}

====

# % DAMGO (1 μM) per record follows
Tested on: mu opiate receptor (MOR)
protocolSummary: MOR agonist activity using [35S]GTPγS binding assay in striatal membranes
Assay type: biochemical
reportedConditions: Series C-1; 1 μM compound, relative to DAMGO

{"molecule": "Cc1cccc(S(=O)(=O)N2CCC3(CC2)OCCN3S(=O)(=O)c2cccc(C)c2)c1 [Compound C0014]", "% DAMGO (1 μM), %": 59.2}
{"molecule": "COc1ccc(NC(=O)N2CCC3(CC2)OCCN3C(=O)Nc2ccc(OC)cc2)cc1 [Compound C0151M]", "% DAMGO (1 μM), %": 122.0}
{"molecule": "CC(=O)c1ccc(S(=O)(=O)N2CCC3(CC2)OC(CN(C)C)CN3S(=O)(=O)c2ccc(C(C)=O)cc2)cc1 (stereo not drawn) [Compound C0065]", "% DAMGO (1 μM), %": 121.3}

====

assaySystem: FLNA pentapeptide of SEQ ID NO: 1 (Bn-VAKGL) (Homo sapiens, UniProt P21333)
protocolSummary: FITC-NLX-based FLNA screening assay (inhibition of FITC-naloxone binding to Bn-VAKGL on streptavidin plates)
reportedConditions: read-out: Percent Binding Inhibition, FLNA-binding compound 1 μM; 10 nM FITC-NLX

{"compound": "O=S(=O)(c1ccccc1)N1CCC2(CC1)OCCN2S(=O)(=O)c1ccccc1 [Compound C0016]", "inhibition at 1 µM, %": 49.1}
{"compound": "COc1c2c(cc3c1C(CC(=O)CCc1ccc(O)cc1)[N+](C)(C)CC3)OCO2 (stereo not drawn) [Compound B0028]", "inhibition at 1 µM, %": 49.1}
{"compound": "COc1c2c(cc3c1C(CC(=O)/C=C/c1ccc(Cl)cc1)[N+](C)(C)CC3)OCO2 (stereo not drawn) [Compound B0019]", "inhibition at 1 µM, %": 49}
